Test system: SK-MEL-2
protocol_summary: NCI tumour cell line growth inhibition, 48 h
The source made the active and inactive calls. No stated cut-off is given here; in the data, active = GI50 up to about 1.1 µM and inactive = higher.
GI50 values, listed per item
observed_property: GI50

compound	endpoint_result
COc1cc(C2SCCCCCCCCCCSC(c3ccc(O)c(OC)c3)SCCCCCCCCCCS2)ccc1O (stereo unspecified)	> 100 µM (inactive)
CC(=O)NN1C(=O)C(Cc2ccccc2)c2ccccc21 (stereo unspecified)	> 100 µM (inactive)
CC(C)(C)OC(=O)N(O)[C@@H]1C=C[C@H](n2cnc3c(N)ncnc32)C1	> 100 µM (inactive)
CCN(CC)C(=S)SS(=O)(=O)c1ccc(N)cc1	> 100 µM (inactive)
C=CCNC(=O)ON1C(=O)CCC1=O	> 100 µM (inactive)
COc1ccccc1N1C(Cl)C(=O)C1c1c[nH]c2ccccc12 (stereo unspecified)	> 100 µM (inactive)
Cc1sc2ncnc(NCCc3ccccc3)c2c1C	14.8 µM (inactive)
CN(c1ccccc1)c1c(-c2ccccc2)c(=O)oc2c1ccc1occc12	> 100 µM (inactive)
O=c1c2ccccc2sc2c(CO)ccc(NCCN3CCCCC3)c12	4.47 µM (inactive)
O=C1NC(=O)C2(CCCCCC2)N1	> 100 µM (inactive)
Nc1c(C(=O)Nc2ccc(C3=NCCN3)cc2)cccc1C(=O)Nc1ccc(C2=NCCN2)cc1	> 100 µM (inactive)

====

Test system: IGROV-1
protocol_summary: NCI tumour cell line growth inhibition, 48 h
The source made the active and inactive calls. Cut-off read from the data, not from the text of the source: active = GI50 up to about 1.1 µM and inactive = higher.
Some compounds, each annotated with its measured GI50.

compound	GI50
CN(C)CCOC(=O)c1ccc(N)cc1	22.4 µM (inactive)
O=C1c2ccccc2C2(O)c3cc4ccccc4cc3OC12O (stereo unspecified)	85.7 µM (inactive)
C[C@]12CC[C@@H]3c4ccccc4CC[C@H]3[C@@H]1CC[C@@H]2O	> 100 µM (inactive)
CC1C(NNC(N)=O)Oc2cc3c(cc2C1c1ccccc1O)OCO3 (stereo unspecified)	26.3 µM (inactive)
O=C1C2CCCC2N1Cc1ccccc1 (stereo unspecified)	> 100 µM (inactive)
O=c1c2ccccc2sc2c(CO)ccc(NCCN3CCCCC3)c12	3.93 µM (inactive)
CCCC(=O)OCC(O)CO (stereo unspecified)	> 5000 µM (inactive)
O=C(c1ccc(Cl)cc1)N1N=C(c2ccc(Cl)cc2)CC1(O)c1cc(F)c(Cl)cc1Cl (stereo unspecified)	17.9 µM (inactive)
COC(=O)C1C/C(=C/N(C)C)C(=S)N1 (stereo unspecified)	> 100 µM (inactive)
O=C(Nc1ccc(F)cc1)c1cc2ccc(O)cc2o/c1=N\c1ccccc1F	10.1 µM (inactive)
COc1cc2c(cc1OC)C(C#N)(Cc1ccccc1)N(C(=O)c1ccccc1)C=C2 (stereo unspecified)	> 100 µM (inactive)

====

System: TK-10
protocol_summary: NCI tumour cell line growth inhibition, 48 h
Activity calls are given as the source filed them. Rule as the data show it: active = GI50 up to about 1.1 µM and inactive = higher.

compound	target_under_test	GI50
Cn1c(=O)ccc2c(=O)c3ccccc3oc21	TK-10	> 100 µM (inactive)
COc1ccc2c(c1C)C(=O)C(O)(CC=C(C)C)O2 (stereo unspecified)	TK-10	> 100 µM (inactive)
CCOC(=O)c1nc2ccccc2nc1NCc1ccc(Cl)cc1Cl	TK-10	> 100 µM (inactive)
O=Cc1cc2c(s1)C(=O)c1sccc1C2=O	TK-10	1.92 µM (inactive)
O=C1CSC(c2c[nH]c3ccccc23)N1c1cccc(Cl)c1 (stereo unspecified)	TK-10	89.3 µM (inactive)
CC1(C)N/C(=C\[N+](=O)[O-])C(C)(C)N1O	TK-10	> 10 µM (inactive)
Cc1ccc(S(=O)(=O)NNC2Oc3cc4c(cc3C(c3ccccc3O)C2C)OCO4)cc1 (stereo unspecified)	TK-10	15.5 µM (inactive)
CC(CC(=O)O)C(C(=O)O)C(=O)O (stereo unspecified)	TK-10	> 100 µM (inactive)
O=C(Nc1ccc([N+](=O)[O-])cc1[N+](=O)[O-])C(=O)C(C(=O)c1ccc2ccccc2c1)C1OC(=O)c2ccccc21 (stereo unspecified)	TK-10	24.1 µM (inactive)
COC(=O)C1=C(c2cc(OC)c(OC)c(OC)c2)OC(c2ccc3c(c2)OCO3)C1 (stereo unspecified)	TK-10	80 µM (inactive)
C=C1CN(C(=O)c2cc3cc(OC)c(OC)c(OC)c3[nH]2)c2cc([N+](=O)[O-])ccc21	TK-10	26.5 µM (inactive)
COc1ccc2c(c1)CC[C@@H]1[C@@H]2CC[C@]2(C)C(=O)/C(=C/c3ccncc3)C[C@@H]12	TK-10	30.6 µM (inactive)
COc1ccc(Oc2nc3c(N)cc(C(F)(F)F)cc3nc2-c2ccccc2)cc1	TK-10	38.5 µM (inactive)
c1ccc(CN2CCC3(CC2)SSC2(CCN(Cc4ccccc4)CC2)SS3)cc1	TK-10	> 100 µM (inactive)
O=C(O)c1cc2ccccc2c(Cc2c(O)c(C(=O)O)cc3ccccc23)c1O	TK-10	> 100 µM (inactive)
CC1=NN(c2nc(N)nc(-c3sccc3N)n2)C(C)(C)C1	TK-10	> 100 µM (inactive)
CCC1CN2CCc3cc(OC)c(OC)cc3C2CC1CC1c2cc(OC)c(OC)cc2CCN1C(=O)C1CCCN1C(=O)OCc1ccccc1 (stereo unspecified)	TK-10	19.5 µM (inactive)
COc1cc(Cc2nccc3cc(OC)c(OC)cc23)c(/N=N/N(C)C)cc1OC	TK-10	20.4 µM (inactive)
Cc1nc(C)c(N2CCN(S(N)(=O)=O)CC2)c(O)n1	TK-10	> 100 µM (inactive)
COC(=O)C1C/C(=C/N(C)C)C(=S)N1 (stereo unspecified)	TK-10	> 100 µM (inactive)
O=C(c1ccc(Cl)cc1)N1N=C(c2ccc(Cl)cc2)CC1(O)c1cc(F)c(Cl)cc1Cl (stereo unspecified)	TK-10	52.7 µM (inactive)
CN(C)/N=C/c1cn(C)c(=O)n(C)c1=O	TK-10	> 100 µM (inactive)
C[Si](C)(C)/C=C\CCO	TK-10	> 100 µM (inactive)
C/C(=C\CC/C=C(\C)CC/C=C(\C)CCC1SC1(C)C)CC/C=C(\C)CCC1OC1(C)C (stereo unspecified)	TK-10	> 100 µM (inactive)
C/C=C(/C)C(=O)O[C@H]1C[C@@H]2[C@@H](O)c3occ(C)c3C[C@]2(C)[C@@H](C)C1	TK-10	17.6 µM (inactive)
CC1(C2COC(=O)C2)SCCCS1 (stereo unspecified)	TK-10	> 100 µM (inactive)
CC1(C)OB(O)OC1(C)C	TK-10	> 100 µM (inactive)
O=c1[nH]c2nc3ccccc3c(=O)n2/c1=C/c1ccco1	TK-10	> 100 µM (inactive)
N#C/C(=C\c1ccc2[nH]ccc2c1)C(=O)NCCCCNC(=O)/C(C#N)=C/c1ccc2[nH]ccc2c1	TK-10	> 31.6 µM (inactive)
CC(C(=O)N1C(=O)N(C(=O)[C@H](C)C(O)c2ccccc2)[C@H](c2ccccc2)[C@H]1c1ccccc1)[C@@H](O)c1ccccc1 (stereo partly specified)	TK-10	41.2 µM (inactive)
C/C(C=O)=C1\C(O)C[C@]1(C)C1CC(C)(C)CC1O (stereo partly specified)	TK-10	> 100 µM (inactive)
COC(=O)c1nc(-c2ccc(Cl)c(Cl)c2)nc2ccc(Cl)cc12	TK-10	44 µM (inactive)
Cc1cc(NS(=O)(=O)c2ccc(Nc3c4ccccc4nc4c(C(=O)NC(CO)(CO)CO)cccc34)cc2)no1	TK-10	29.2 µM (inactive)
C=CC(C)(C)c1cc([C@@H]2COc3cc(O)ccc3C2=O)c(O)c(OC)c1OC	TK-10	27.9 µM (inactive)
Cc1ccc(C2=C(c3ccc(C)cc3)C(c3ccc(C)cc3)=C(c3ccc(C)cc3)C2=O)cc1	TK-10	> 100 µM (inactive)
COc1cccc2c1CCc1cc3c(N)nc(N)nc3nc1-2	TK-10	10.9 µM (inactive)
Cc1cc2c(c(/C=N/c3ccc([N+](=O)[O-])cc3)c1)OC1(C=C2)Oc2ccccc2C(=O)N1C (stereo unspecified)	TK-10	24.5 µM (inactive)
O=C(O)c1ccccc1/C=C1/Cc2ccc3c(c2C1=O)CCC3	TK-10	90.8 µM (inactive)
O=C(CSc1nc2ccc(I)cc2c(=O)n1Cc1ccccc1)NN1C(=O)c2ccccc2C1=O	TK-10	13.7 µM (inactive)
NNC(=O)COc1nc(-c2cccs2)nc2ccc(I)cc12	TK-10	18.2 µM (inactive)
COc1ccc(N2C(=O)CSC2c2cc3cc(Br)ccc3nc2Cl)cc1 (stereo unspecified)	TK-10	> 50 µM (inactive)

====

Test system: HOP-92
protocol_summary: NCI tumour cell line growth inhibition, 48 h
Activity calls are given as the source filed them. No stated cut-off is given here; in the data, active = GI50 up to about 1.1 µM and inactive = higher. Starred links: 1 amine or outer side, 2 acyl side, 3 side chain; linkers in the order of their positions; H or OH if unused. Positions of bridges follow the written chain, without caps; N, C: chain ends. Non-standard residues stand in square brackets, D forms with d. Residues, ends and D or L forms follow the SMILES beside them. ξ: configuration not given here. *: point of attachment. γ4hArg(2R,3R-(OH)2) = N=C(N)NCCC[C@H](N[*:1])[C@@H](O)[C@@H](O)C(=O)[*:2]; Gln(3S,4R-Me2) = C[C@H]([C@H](N)C(=O)O)[C@@H](C)C(N)=O; X50 = CC(C)C[C@H](C)[C@@H](O)[C@@H](C)C(=O)*; X51 = COC(c1ccc(O)cc1)C(N[*:1])C(=O)[*:2]; NMeQ = CN[C@@H](CCC(N)=O)C(=O)O; Thr(3ξ) = CC(O)[C@H](N)C(=O)O; NMeA = CN[C@@H](C)C(=O)O
Outcomes: active, inactive

compound	label
O=C(/C=C/c1csc(-c2ccccc2)n1)NCc1ccc(C(=O)NCCc2ccccc2)cc1	inactive
COc1ccc2c(c1OC(C)=O)C1=CC(=O)CCC13CCNC3C2 (configuration not stated)	inactive
CC(=O)OCC1OC(n2c(-c3ccc(N)cc3)cc(-c3ccco3)c(C#N)c2=O)C(OC(C)=O)C(OC(C)=O)C1OC(C)=O (configuration not stated)	inactive
COc1ccc(Oc2nc3c(N)cc(C(F)(F)F)cc3nc2-c2ccccc2)cc1	inactive
Cc1cc(NS(=O)(=O)c2ccc(Nc3c4ccccc4nc4c(C(=O)NC(CO)(CO)CO)cccc34)cc2)no1	inactive
CC(C)C[C@H](NC(=O)[C@@H](N)Cc1cccc2ccccc12)B(O)O	active
NNC(=O)COc1nc(-c2cccs2)nc2ccc(I)cc12	inactive
C[Si](C)(C)/C=C\CCO	inactive
COC(c1ccc(O)cc1)C1NC(=O)[C@H](CCC(N)=O)N(C)C(=O)[C@H](CC(C)C)NC(=O)[C@@H](CCCN=C(N)N)NC(=O)[C@H](C(C)O)NC(=O)[C@@H](NC(=O)[C@@H](NC(=O)[C@H](O)[C@H](O)[C@H](CCCN=C(N)N)NC(=O)[C@H](C)NC(=O)[C@H](C)[C@H](O)[C@@H](C)CC(C)C)[C@@H](C)[C@@H](C)C(N)=O)[C@@H](C)OC(=O)[C@H](C)N(C)C1=O (stereo partly drawn) (X50-A[γ4hArg(2R,3R-(OH)2)][Gln(3S,4R-Me2)]T[Thr(3ξ)][dR]L[NMeQ][X51][NMeA]; ester 4-C)	active
O=C(/C=C/c1ccccc1F)C(c1ccccc1)c1ccccc1	inactive
CC(=O)C1=C(C)N2C(=NC3=C(CCc4ccccc43)C2c2ccc(F)cc2)S1 (configuration not stated)	inactive
COC1=C(OC)C23CCc4ccc(OC)c(O)c4C2(CCN3)CC1=O (configuration not stated)	inactive
O=C(O)/C(Cl)=C(\Cl)C(=O)NC1C2CC3CC(C2)CC1C3 (configuration not stated)	inactive
Cc1nc(C)c(N2CCN(S(N)(=O)=O)CC2)c(O)n1	inactive
Cc1ccc(S(=O)(=O)NNC2Oc3cc4c(cc3C(c3ccccc3O)C2C)OCO4)cc1 (configuration not stated)	inactive
Cc1cc(S(=O)(=O)Nc2nc(N)nc(N(C)C)n2)c(S)cc1Cl	inactive
CCO/N=C(/CC)c1ccc(Br)s1	inactive
